assay: Solubility of phenothiazine derivatives (Table 2 compilation); format: physicochemical; conditions: organic solvent or mixture, electrolyte not stated, read-out: Solubility
parameterMeasured: Solubility (mM)
Response body: numeric value in mM, unit text excluded.

Form: molecule = `CCN1c2ccccc2Sc2ccccc21` ; Solubility = 100

---

experiment: Maximum solubility of electro-active species in 0.2 M LiBF4 in PC; format: physicochemical; conditions: organic solvent or mixture, thermodynamic from solid, room temperature
So I've got a bunch of compounds here, and I need their solubility at 1 h values.

solubility at 1 h for `CCN1c2ccc(C(F)(F)F)cc2Sc2cc(C(F)(F)F)ccc21` is ~1200 mM

Summary for this compound, `COCCOc1cc(C(C)(C)C)c(OCCOC)cc1C(C)(C)C` : solubility at 1 h is ~180 mM

Item: `Cc1ccc2nc(C)c(C)nc2c1` | solubility at 1 h: ~370 mM
